Molecular target: fusion protein of the extracellular domain of the human inhibitory receptor CD200R fused to the Fc portion of human IgG1 (human) (UniProt Q8TD46)
Sequence (Q8TD46 other isoform, or with tags, fused parts or gaps limits assumed, form in doubt): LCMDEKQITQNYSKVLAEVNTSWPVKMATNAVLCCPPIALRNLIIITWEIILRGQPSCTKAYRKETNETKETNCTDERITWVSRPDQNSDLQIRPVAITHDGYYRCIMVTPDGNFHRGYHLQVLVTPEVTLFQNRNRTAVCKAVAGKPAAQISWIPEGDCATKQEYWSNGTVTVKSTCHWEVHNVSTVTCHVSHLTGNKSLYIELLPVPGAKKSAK
Test: KinExA, human CD200R-Ig in solution and on the particles
recorded metric: Kd (nM)
Your answer should be a plain number; it is taken to be in nM.

DX182, rat anti-human inhibitory CD200R monoclonal antibody (antibody, V domains shown) VL: EVQMTQSPSTLTASPGESVSINCKASKNIRSYLAWYQQKPGKPNKLLIYSGSTLHSGTPSRFSGSGFGTDFTLTIRNLEPEDFGLYYCQQHHEYPLTFGSGTKLEIKR VH: EIQLQESGPGLVKPSQSLSLTCSVTGYTITSGYDWSWIRKFPGNKMEWMGYINYGGSTNYKPSLGSRISITRDTSKNQFFLQLNSVSPEDTATYYCAKYNEYKSYIYDWYFDFWGPGTMVTVSS
0.056

Task: Name the recorded Kd for DX184, rat anti-human inhibitory CD200R monoclonal antibody (antibody, V domains shown) VL: DIVMTQSPTFMSISVGDRVTMSCKASQNVGSNVDWYQQKTGQSPKLLIYKASNRYTGVPDRFTGSGSGTGFTFTITNLQAEDLAVYYCMQSLSFPYTSGAGT VH: QVQLKESGPGLVQPSQTLSLTCTVSGFSLTNNGVSWVRQPPGKGLEWIAAISSGGGTFYNSALKSRLSISRDTSKSQVFLKMNSLQTEDTAIYFCARDGDWDWYFDFWGPGTMVTVSS .
Output: 0.026

Task: What do we get for DX185, rat anti-human inhibitory CD200R monoclonal antibody (antibody, V domains shown) VH: EIQLQESGPGLVKPSQSFSLTCSVTGYTITSGYDWSWIRKFPGNRMEWMGYINYSGSTVYNPSLRSRFSITRDTSKNQFFLQLNSVASEDTATYYCAKFEASNTYLYDWYFDFWGPGTMVTVSS VL: DVQMTQSPSYLAASPGESVSISCKAGKNINTNLAWYQAKPGKTNKVLIHSGSTLQSGTPSRFSGSGFGTDFTLTIRSLEPEDFAVYYCQQHNEFPLTFGSGTKLEIKR ?
Output: 0.126

Task: What about this binder? DX178, rat anti-human inhibitory CD200R monoclonal antibody (antibody, V domains shown) VH: EIQLQESGPGLVKPSQSLSLTCSVTGFTITSGYDWSWIRKFPGNKMEWMGYIGFSGSTVYNPSLNSRISITRDTAKNQFFLQLNSVTTEDTATYHCAKSFVQNTFIYDWFFDFWGPGTMVTVSS VL: DVRMTQSPSNLAASPGESVSINCKASKNISKYLAWYQQKPGKANRLLICSGSTLQSGTPSRFSGSGFGTDFTLTIRNLEPEDFGLYYCQQHNEFPLTFGSGTKLEIKR
Output: 0.628
